Task for the reader: assign each of the following compounds its reported TGI.
# System: OVCAR-8 ovarian
# assayRemarks: NCI tumour cell line growth inhibition, 48 h

C#CCOCn1cnc2c(Sc3c([N+](=O)[O-])ncn3C)ncnc21 :: > 100 µM
NC(N)=NS(=O)(=O)c1ccc(NNc2c3ccccc3nc3c(C(=O)Nc4ccc(S(=O)(=O)N=C(N)N)cc4)cccc23)cc1 :: > 100 µM
COc1cccc(C2c3cc4c(cc3OC(N3CCOCC3)C2C)OCO4)c1OC (configuration not stated) :: > 100 µM
C=C1C(=O)O[C@H]2[C@H]1CC/C(COC(=O)c1cc3ccccc3o1)=C\CC[C@@]1(C)O[C@@H]21 :: 7.63 µM
CS(=O)(=O)CCNCc1ccc(-c2ccc3ncnc(Nc4ccc(OCc5ccccc5)c(Br)c4)c3c2)o1 :: > 25 µM
O=C1CC(=O)N(C(=O)c2nn(-c3ccc(Cl)cc3)cc2O)N1 :: > 100 µM
C=CCN1C(=O)/C(=C\c2cc(C(C)(C)C)c(O)c(C(C)(C)C)c2)NC1=S :: > 100 µM
COc1ccc2nccc(SCC(=O)O)c2c1 :: > 100 µM
O=[N+]([O-])c1ccc(N=Nc2c(O)ccc3ccccc23)c([N+](=O)[O-])c1 :: > 100 µM
O=C(Nc1ccc(Cl)cc1Cl)C1C(=O)C(=O)N(c2ccc(Cl)cc2Cl)C1=O (configuration not stated) :: > 100 µM

Kindly give each listed record's TGI.
1. Clc1nssc1=Nc1nonc1-c1ccccc1
2. CC(=O)[CH-]C(=O)c1ccccc1.CC(=O)[CH-]C(=O)c1ccccc1.CC(C)CCCC(C)[C@H]1CCC2[C@@H]3CC=C4C[C@@H]([O-])CC[C@]4(C)C3CC[C@@]21C.CC(C)CCCC(C)[C@H]1CCC2[C@@H]3CC=C4C[C@@H]([O-])CC[C@]4(C)C3CC[C@@]21C.[Ti+4] (some centres not stated)
3. COc1cccc2c1CCc1cc3c(N)nc(N)nc3nc1-2
4. COc1ccc(-c2oc(=O)ccc2-c2cc(OC)c(OC)c(OC)c2)cc1O

Response line:
> 100 µM
> 100 µM
21.7 µM
> 100 µM

Hey, can you go through the list below and give me TGI for every item?
1. CC(=Nc1ccccc1)C1=C(O)C(Cc2ccc(O)cc2)NC1=O (configuration not stated)
2. C/C=C1\C=C(OC)CN(CCc2c[nH]c3ccccc23)C1
3. COc1cc2c(cc1OC)-c1ccc3cc4c(cc3c1N(CCCn1ccnc1)C2)OCO4
4. COc1ccc(-c2cc(=O)c3ccccc3o2)cc1N
5. COc1ccc(NC([Se])=NC23CC4CC(CC(C4)C2)C3)cc1
6. N#Cc1c(=O)c2ccccc2n2c1[nH]c1ccccc12

Response line:
1: > 100 µM; 2: > 100 µM; 3: 43.6 µM; 4: > 100 µM; 5: 3.71 µM; 6: > 100 µM

Please give TGI, item by item, for the list that follows.
1. Clc1ccc(OCc2nnc(CCCCCCCCc3nnc(COc4ccc(Cl)cc4Cl)n3Nc3ccccc3)n2Nc2ccccc2)c(Cl)c1
2. O=C1CCCCCCCCCCC1CCCCCBr (configuration not stated)
3. CCN(CC)CCC(=O)c1ccc(C)cc1
4. CCN(Cc1ccccc1)c1ccc(CO)c(Cl)c1

Response line:
50.3 µM
> 100 µM
> 100 µM
> 100 µM

----------
# Tested on: MDA-MB-435
# assayRemarks: NCI tumour cell line growth inhibition, 48 h
Could you please report measured TGI for the items listed next?
Numbers only, in µM.

Look over these answered cases.
O=S(=O)(NCCCNc1nccc(-c2c(-c3ccc(F)c(O)c3)nc3sccn23)n1)c1ccc(F)cc1 :: 3.35
CCCCCCCCCCCCCCCCCCN(C)C(COC)COP(=O)([O-])OCC[N+](C)(C)C (stereo not given) :: 33.9
CCN(Cc1ccccc1)c1ccc(CO)c(Cl)c1 :: 77.8

Each of the following entries comes with a recorded value; kindly state TGI for each.
1. COc1ccc(-c2cc(-c3ccc(Cl)cc3)nc(SCCCC(=O)NO)n2)cc1
2. COc1cc(/C=C2\N=C(c3ccccc3)N(c3nc4cc(C)c(C)cc4s3)C2=O)ccc1O

Response line:
3.19
52.1

Batch request: TGI for each of the following compounds.
1. Nc1c2c(c(O)c3c1=C(CO)C=N3)=NCCS2
2. COC(=O)c1ccc(NC(=O)O/N=C(\Cl)C(C)C)cc1
3. CC(O)c1cc2c(s1)C(=O)c1ccsc1C2=O (stereo not given)
4. C=C1C(=O)O[C@H]2[C@H]1CC/C(COC(=O)C(=O)c1cn(C)c3ccc(Cl)cc13)=C\CC[C@@]1(C)O[C@@H]21
5. CCn1c(SCC(=O)N/N=C/c2ccccc2)nc2ccccc2c1=O
6. COc1ccc(-c2c3c(cc4cc5c(cc24)OCO5)C(=O)OC3)cc1OC
7. Cc1cccc2c1C(=O)[C@](C)([C@]1(C)Nc3cccc(C)c3C1=O)N2

Response line:
1: 0.169; 2: 25.5; 3: 0.026; 4: 3.13; 5: 17.6; 6: 11.5; 7: 35.7

Provide each entry's TGI from the list below.
1. Cc1ccc(Cc2cnc(NC(=O)/C=C/c3cccc(C)c3)s2)cc1
2. C=CCN1C(=O)/C(=C\c2cc(C(C)(C)C)c(O)c(C(C)(C)C)c2)NC1=S
3. Oc1c(Cl)c(Cl)c(O)c(CCNc2ccc3ncccc3c2)c1Cl
4. C=C(C)[C@@H]1CC[C@]2(C(=O)O)CC[C@]3(C)[C@H](CC[C@@H]4[C@@]5(C)CCC(NC(=O)c6cccc(OC(C)=O)c6OC(C)=O)C(C)(C)[C@@H]5CC[C@]43C)[C@@H]12 (stereo not given in full)
5. COc1cc(-c2ccc(-c3ccc(C(=N)N)nc3)s2)cc(OC)c1OC

Response line:
1: 0.104; 2: 70.8; 3: 18.8; 4: 1.61; 5: 3.05

----------
# Test system: NCI-H460 lung
# assayRemarks: NCI tumour cell line growth inhibition, 48 h
metricName: TGI (µM)
Answers are plain numbers, in µM.

Known TGI results, listed for orientation:
CCCCCCCCCCCCCCCCCCN(C)C(COC)COP(=O)([O-])OCC[N+](C)(C)C (stereo not given) :: 4.38
CC(=O)NC1=C(NC(C)(C)C)C(=O)c2ccccc2C1=O :: 41.1
Nc1c2ccccc2nc2ccc3c(=O)cc(-c4ccccc4)oc3c12 :: 2.22
N#CC1=C(N)Oc2c(ccc3ccccc23)C1c1ccccc1 (stereo not given) :: 10.8

Please turn your attention to the following entry.
Prompt line: Lab request: please report TGI under test system NCI-H460 lung for "Cc1ccc(NC2=C(Cl)C(=O)N(Cc3ccc(Cl)cc3)C2=O)cc1O"
Response line: 20.5

----------
# System: NCI-H522 lung
# assayRemarks: NCI tumour cell line growth inhibition, 48 h
metricName: log10(TGI) (log10 of the value in µM)
The figures below represent log10 of TGI, where TGI is stated in µM.

Example entries and their recorded answers appear below.
CS(=O)(=O)CCNCc1ccc(-c2ccc3ncnc(Nc4ccc(OCc5ccccc5)c(Br)c4)c3c2)o1 :: 1.03
Cc1cc(O)cc2c1[C@]1(C)CCC3C(C)(C)CCC[C@]3(C)[C@H]1C2 (some centres not stated) :: 1.59
O=C(CCc1nnc2s/c(=C\c3ccc(Cl)c(Cl)c3)c(=O)n12)Nc1ccc(Cl)c(Cl)c1 :: 1.81
C#CC1(OC(C)=O)CCC2C3CC=C4C=C(OC(C)=O)CCC4(C)C3CCC21C (configuration not stated) :: 1.54
Cc1ccc(NC2=C(Cl)C(=O)N(Cc3ccc(Cl)cc3)C2=O)cc1O :: 1.54
Cc1ccccc1NC(=O)c1c(C)oc2c1C(=O)c1ccccc1C2=O :: 1.55
CCN(Cc1ccccc1)c1ccc(CO)c(Cl)c1 :: 1.80
CC1=C(C(=O)Nc2ccc(Cl)c(Cl)c2)C(c2cccc(Cl)c2)NC(=O)N1 (configuration not stated) :: 1.27
Cc1occc1C(=S)Nc1ccc(Cl)c(C(=O)OC(C(C)C)C(C)C)c1 :: 1.41
C=C1C(=O)O[C@H]2[C@H]1CC/C(COC(=O)c1cc3ccccc3o1)=C\CC[C@@]1(C)O[C@@H]21 :: 0.38

Give log10(TGI) for each listed item.
1. N#CC(C#N)=C/C=C(\Sc1c(Cl)c(Cl)nc(Cl)c1Cl)c1ccc(Cl)cc1
2. COc1cc2ncn(-c3cc(O[C@@H](C)c4ccccc4Cl)c(C(N)=O)s3)c2cc1OC
3. COc1ccc(-c2cc(-c3ccc(Cl)cc3)nc(SCCCC(=O)NO)n2)cc1
4. C=C1C(=O)O[C@H]2[C@H]1CC/C(COC(=O)C(=O)c1cn(C)c3ccc(Cl)cc13)=C\CC[C@@]1(C)O[C@@H]21
5. CC(=O)N1C/C(=C/c2ccc(Cl)cc2)C(=O)/C(=C/c2ccc(Cl)cc2)C1
6. COc1cc2c(cc1OC)-c1ccc3cc4c(cc3c1N(CCCn1ccnc1)C2)OCO4
7. O=C1C=CC(=O)C12CCc1ccccc12

Response line:
1: 1.75; 2: 0.81; 3: 0.51; 4: 0.43; 5: 0.45; 6: 0.53; 7: 1.52
